- Study Target: full-length beta-Catenin (Uniprot ID P35222) (Homo sapiens (Human)) (UniProt P35222)
- Protocol Details: fluorescence polarization competition; full-length beta-catenin, competitor 5FAM-TCF4(10-53)
pIC50: −log10 of the molar value. Starred links: 1 amine or outer side, 2 acyl side, 3 side chain; linkers in the order of their positions; H or OH if unused. Positions of bridges follow the written chain, without caps; N, C: chain ends. Non-standard residues stand in square brackets, D forms with d. Primed or numbered codes have the meaning given here. No end group written: not given here. *: point of attachment. PyrS2″ = (S)-3-amino-1-((pent-4-en-1-yloxy)carbonyl)pyrrolidine-3-carboxylic acid (stapling residue), C=CCCCOC(=O)N1CC[C@@](N[*:1])(C(=O)[*:2])C1; B5(4) = 2,2-bis(4-pentenyl)glycine = 2-amino-2-(pent-4-en-1-yl)hept-6-enoic acid (stitching residue), C=CCCCC(CCCC=C)(N[*:1])C(=O)[*:2]; B5(5) = 2,2-bis(4-pentenyl)glycine, 2-amino-2-(pent-4-en-1-yl)hept-6-enoic acid (stitching residue), C=CCCCC(CCCC=C)(N[*:1])C(=O)[*:2]; TfeGA = (S)-2-amino-3-((carboxymethyl)(2,2,2-trifluoroethyl)amino)propanoic acid, O=C([C@H](CN(CC(=O)[*:3])CC(F)(F)F)N[*:1])[*:2]; PyrS2 = (S)-3-amino-1-((pent-4-en-1-yloxy)carbonyl)pyrrolidine-3-carboxylic acid, C=CCCCOC(=O)N1CC[C@@](N[*:1])(C(=O)[*:2])C1; B5(3) = 2,2-bis(4-pentenyl)glycine (stitching residue), C=CCCCC(CCCC=C)(N[*:1])C(=O)[*:2]; ProSAm3 = (allylsulfonyl)-D-proline, C=CCS(=O)(=O)N1CCC[C@@H]1C(=O)*; Phe(3-Ph) = N[C@@H](Cc1cccc(-c2ccccc2)c1)C(=O)O; Phe(3-COOH) = N[C@@H](Cc1cccc(C(=O)O)c1)C(=O)O; Phe(2-CF3) = N[C@@H](Cc1ccccc1C(F)(F)F)C(=O)O; Bta = N[C@@H](Cc1csc2ccccc12)C(=O)O; Lys(iPr) = CC(C)NCCCC[C@H](N)C(=O)O; αAllylPro = C=CC[C@@]1(C(=O)O)CCCN1; tBuAla = CC(C)(C)C[C@H](N)C(=O)O; 3Thi = N[C@@H](Cc1ccsc1)C(=O)O; 2F3MeF″ = Phe derivative

| Binder | pIC50 |
| --- | --- |
| Ac-[αAllylPro]D[tBuAla][B5(4)]D[TfeGA][Lys(iPr)]AFL[PyrS2″][3Thi][Bta]L-NH2 (staple 1-4, 4-11; also: -CH=CH- in each staple reduced to -CH2-CH2-) [I-1765] | 6.18 |
| Ac-[αAllylPro]D[tBuAla][B5(4)]D[TfeGA]AAFT[PyrS2″][3Thi][Bta]L-NH2 (staple 1-4, 4-11; also: -CH=CH- in each staple reduced to -CH2-CH2-) [I-1754] | 6.18 |
| [ProSAm3]D[tBuAla][B5(3)]D[TfeGA]AAFL[PyrS2″][3Thi][Bta]Q-NH2 (staple (positions not given here); staple 4-11; not fully specified (bridges)) [I-2266] | 6.58 |
| Ac-[αAllylPro]D[tBuAla][B5(3)]D[Phe(3-COOH)]AAFL[PyrS2″][Phe(3-Ph)][2F3MeF″]Q-NH2 (staple 1-4, 4-11) [I-2256] | 5.08 |
| Ac-[αAllylPro]D[tBuAla][B5(5)]D[Phe(3-COOH)]AAFL[PyrS2][Phe(2-CF3)][Bta]QLY-NH2 (staple 1-4, 4-11) [I-2392] | 6.34 |
| Ac-[αAllylPro]D[tBuAla][B5(5)]D[TfeGA][Lys(iPr)]AFL[PyrS2″][3Thi][Bta]L-NH2 (staple 1-4, 4-11) [I-1759] | 7.24 |
| Ac-[αAllylPro]D[tBuAla][B5(5)]D[Phe(3-COOH)]AAFL[PyrS2][Phe(2-CF3)][Bta]QLR-NH2 (staple 1-4, 4-11) [I-2393] | 7.21 |
| Ac-[αAllylPro]D[tBuAla][B5(4)]D[TfeGA]AAFL[PyrS2″][3Thi][Bta]F-NH2 (staple 1-4, 4-11; not fully specified) [I-1749] | 6.84 |
